For reference, Ki measured on Sodium-dependent serotonin transporter (Rattus norvegicus, UniProt P31652):
quantity: Ki

{"molecule": "CC(=O)C1C(c2ccc(F)cc2)CC2CCC1N2C (configuration not stated)", "system": "Sodium-dependent serotonin transporter (Rattus norvegicus, UniProt P31652)", "quantity": "Ki", "recorded_result": "857 nM"}
{"molecule": "CCC(=O)C1C(c2ccc(C)cc2)CC2CCC1N2C (single isomer, unassigned; (-))", "system": "Sodium-dependent serotonin transporter (Rattus norvegicus, UniProt P31652)", "quantity": "Ki", "recorded_result": "> 10000 nM"}
{"molecule": "CC(=O)C1C(c2ccc(C)cc2)CC2CCC1N2C (configuration not stated)", "system": "Sodium-dependent serotonin transporter (Rattus norvegicus, UniProt P31652)", "quantity": "Ki", "recorded_result": "122 nM"}
{"molecule": "CCC(=O)C1C(c2ccccc2)CC2CCC1N2C (configuration not stated)", "system": "Sodium-dependent serotonin transporter (Rattus norvegicus, UniProt P31652)", "quantity": "Ki", "recorded_result": "1010 nM"}
{"molecule": "CCC(=O)C1C(c2ccc(-c3ccccc3)cc2)CC2CCC1N2C (configuration not stated)", "system": "Sodium-dependent serotonin transporter (Rattus norvegicus, UniProt P31652)", "quantity": "Ki", "recorded_result": "4.31 nM"}
{"molecule": "CCC(=O)C1C(C2CCCCC2)CC2CCC1N2C (configuration not stated)", "system": "Sodium-dependent serotonin transporter (Rattus norvegicus, UniProt P31652)", "quantity": "Ki", "recorded_result": "> 10000 nM"}
{"molecule": "CCC(=O)C1C(CC)CC2CCC1N2C (configuration not stated)", "system": "Sodium-dependent serotonin transporter (Rattus norvegicus, UniProt P31652)", "quantity": "Ki", "recorded_result": "> 10000 nM"}

* * *

molecular target: Sodium-dependent dopamine transporter (Rattus norvegicus, UniProt P23977); assay: The potency of the [125I]RTI-55 for Dopamine transporter site
Sequence (P23977 whole entry): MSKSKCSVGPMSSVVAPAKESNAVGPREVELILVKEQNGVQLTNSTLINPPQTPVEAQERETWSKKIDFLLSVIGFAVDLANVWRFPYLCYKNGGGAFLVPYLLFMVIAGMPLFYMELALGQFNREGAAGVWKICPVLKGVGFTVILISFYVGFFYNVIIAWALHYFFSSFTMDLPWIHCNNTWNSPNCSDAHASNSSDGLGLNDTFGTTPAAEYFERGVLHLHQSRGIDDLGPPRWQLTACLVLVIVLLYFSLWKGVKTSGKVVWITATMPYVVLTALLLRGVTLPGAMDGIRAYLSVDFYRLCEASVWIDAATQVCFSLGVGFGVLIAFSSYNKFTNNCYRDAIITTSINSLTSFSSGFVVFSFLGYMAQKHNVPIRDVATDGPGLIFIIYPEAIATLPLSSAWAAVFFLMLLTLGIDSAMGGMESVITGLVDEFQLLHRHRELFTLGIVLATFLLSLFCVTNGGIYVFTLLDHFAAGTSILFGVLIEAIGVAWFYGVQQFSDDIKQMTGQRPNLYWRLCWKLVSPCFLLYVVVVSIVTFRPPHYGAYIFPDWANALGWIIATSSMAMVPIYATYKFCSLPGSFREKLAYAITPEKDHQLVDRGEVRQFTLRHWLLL

{"molecule": "CCOC(=O)C1C(c2ccc(I)cc2)CC2CCC1N2C (stereo unspecified)", "Kd": "1 nM"}

* * *

target: Sodium-dependent dopamine transporter (Rattus norvegicus); experiment: Inhibition of [125I]RTI-55 binding to dopamine transport sites in rat striatal membranes.; assay type: cell membranes, Membrane

{"molecule": "CCC(=O)C1C(c2ccc3ccccc3c2)CC2CCC1N2C (single isomer, unassigned; (-))", "IC50 (nM)": 113}
{"molecule": "CCC(=O)C1C(c2ccccc2C)CC2CCC1N2C (stereo not given)", "IC50 (nM)": 1290}
{"molecule": "CCC(=O)C1C(c2ccc3ccccc3c2)CC2CCC1N2C (stereo in doubt; (+)-21a)", "IC50 (nM)": 0.043}
{"molecule": "CC(=O)C1C(c2ccccc2)CC2CCC1N2C (stereo not given)", "IC50 (nM)": 114}
{"molecule": "CCC(=O)C1C(c2ccc(C)cc2)CC2CCC1N2C (single isomer, unassigned; (-))", "IC50 (nM)": 1340}
{"molecule": "CCC(=O)C1C(c2ccc(F)cc2)CC2CCC1N2C (stereo not given)", "IC50 (nM)": 15.3}
{"molecule": "CCC(=O)C1C(c2ccc(C)cc2)CC2CCC1N2C (stereo in doubt; 12a)", "IC50 (nM)": 8.2}
{"molecule": "CCC(=O)C1C(c2cccc3ccccc23)CC2CCC1N2C (stereo not given)", "IC50 (nM)": 5.34}
{"molecule": "CCC(=O)C1C(c2ccc3ccccc3c2)CC2CCC1N2C (stereo in doubt; 21a)", "IC50 (nM)": 0.115}
{"molecule": "CCC(=O)C1C(c2ccc(-c3ccccc3)cc2)CC2CCC1N2C (stereo not given)", "IC50 (nM)": 2.29}
